target.entity: hGYS1 enzyme (recombinant hGYS1/GN1 protein) (Homo sapiens (Human), UniProt P13807)
Sequence (P13807 whole entry): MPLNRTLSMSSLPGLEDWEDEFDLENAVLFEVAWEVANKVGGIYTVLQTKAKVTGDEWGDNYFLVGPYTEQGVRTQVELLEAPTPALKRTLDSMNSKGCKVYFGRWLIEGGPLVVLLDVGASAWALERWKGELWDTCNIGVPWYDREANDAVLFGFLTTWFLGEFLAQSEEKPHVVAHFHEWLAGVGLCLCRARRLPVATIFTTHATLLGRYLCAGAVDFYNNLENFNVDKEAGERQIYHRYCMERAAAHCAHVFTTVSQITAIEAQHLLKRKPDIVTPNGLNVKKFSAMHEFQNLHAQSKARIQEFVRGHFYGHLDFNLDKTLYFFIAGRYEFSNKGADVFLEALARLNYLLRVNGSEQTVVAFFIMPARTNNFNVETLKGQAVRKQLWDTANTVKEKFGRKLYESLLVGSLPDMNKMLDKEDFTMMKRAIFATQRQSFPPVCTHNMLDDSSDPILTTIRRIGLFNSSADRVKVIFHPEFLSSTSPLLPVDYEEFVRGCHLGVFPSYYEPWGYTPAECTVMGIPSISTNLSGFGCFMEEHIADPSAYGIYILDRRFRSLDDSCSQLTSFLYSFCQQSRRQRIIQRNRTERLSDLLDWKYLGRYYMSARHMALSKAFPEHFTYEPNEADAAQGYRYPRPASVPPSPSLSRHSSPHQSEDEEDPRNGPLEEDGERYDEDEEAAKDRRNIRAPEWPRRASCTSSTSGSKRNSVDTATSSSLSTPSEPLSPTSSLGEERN
Sequence (P46976 whole entry partner): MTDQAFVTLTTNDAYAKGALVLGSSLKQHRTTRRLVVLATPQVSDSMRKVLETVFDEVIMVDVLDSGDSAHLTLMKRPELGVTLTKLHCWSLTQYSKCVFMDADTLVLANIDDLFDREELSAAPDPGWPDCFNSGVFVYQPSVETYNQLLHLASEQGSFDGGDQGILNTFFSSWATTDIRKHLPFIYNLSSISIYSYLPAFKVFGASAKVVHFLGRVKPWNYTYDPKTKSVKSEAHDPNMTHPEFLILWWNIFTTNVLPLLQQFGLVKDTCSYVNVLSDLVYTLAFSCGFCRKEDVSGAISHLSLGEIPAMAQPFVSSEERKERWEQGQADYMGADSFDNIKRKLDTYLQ
assay.explanation: GYS1 coupled enzyme assay (PK/LDH)
Assay type: biochemical
condition.description: hGYS1/GN1 50 nM, UDP-Glucose 0.8 mM, G6P 1 mM; geometric mean of at least 2 runs
Source text: The GYS1 coupled enzyme assay is a kinetic biochemical assay that indirectly quantifies the rate of glycogen synthesis by coupling the conversion of GYS1 substrate UDP-glucose into UDP with downstream enzymatic reactions. UDP is released from UDP-glucose as glucose monomers are linked into the growing glycogen strand by GYS1. […] Oxidation of NADH to NAD+ can be measured continuously with a plate reader by quantifying the decrease in NADH absorbance at 340 nm over time. […]
value.type: IC50 (µM)

> print(dat)
                                    molecule                             target.entity  value
 1  CC(C)c1ccc([C@@H](NC(=O)[C@@H]2C[C@@H](F)CN2C(=O)CNC(=O)N2CCC2)c2ccccc2)nc1 [Compound 265]  hGYS1 enzyme (recombinant hGYS1/GN1 protein) (Homo sapiens (Human), UniProt P13807)  0.041
 2  C[C@H](NC(=O)N(C)C)C(=O)N1C[C@H](F)C[C@H]1C(=O)N[C@@H](c1ccccc1)c1ccc(C2CC2)c(F)n1 [Compound 310]  hGYS1 enzyme (recombinant hGYS1/GN1 protein) (Homo sapiens (Human), UniProt P13807)  0.075
 3  O=C(N[C@H](c1ccccc1)c1ccc(C2CC(F)(F)C2)c(F)n1)[C@@H]1C[C@@H](F)CN1C(=O)Cc1ccc(=O)[nH]c1 [Compound 520]  hGYS1 enzyme (recombinant hGYS1/GN1 protein) (Homo sapiens (Human), UniProt P13807)  0.557
 4  CC(C)c1ccc([C@@H](NC(=O)[C@@H]2C[C@@H](F)CN2C(=O)Cn2ccnc2)c2ccccc2)cc1F [Compound 380]  hGYS1 enzyme (recombinant hGYS1/GN1 protein) (Homo sapiens (Human), UniProt P13807)  0.047
 5  Cc1cc(C(F)F)nn1CC(=O)N1C[C@H](F)C[C@H]1C(=O)N[C@@H](c1ccccc1)c1ccc(C2CC2)c(F)n1 [Compound 752]  hGYS1 enzyme (recombinant hGYS1/GN1 protein) (Homo sapiens (Human), UniProt P13807)  0.021
 6  CC(C)c1ccc([C@@H](NC(=O)[C@@H]2C[C@@H](F)CN2C(=O)COc2cccnc2)c2ccccc2)cc1 [Compound 48]  hGYS1 enzyme (recombinant hGYS1/GN1 protein) (Homo sapiens (Human), UniProt P13807)  0.044
 7  Cc1ccc(CCC(=O)N2C[C@H](F)C[C@H]2C(=O)N[C@@H](c2ccccc2)c2ccc(C(C)C)cc2)nc1 [Compound 101]  hGYS1 enzyme (recombinant hGYS1/GN1 protein) (Homo sapiens (Human), UniProt P13807)  0.054
 8  CCn1cc(CC(=O)N2C[C@H](F)C[C@H]2C(=O)N[C@@H](c2ccccc2)c2ccc(C3CC3)c(F)n2)cc(C)c1=O [Compound 739]  hGYS1 enzyme (recombinant hGYS1/GN1 protein) (Homo sapiens (Human), UniProt P13807)  0.017
 9  CC(Cn1cncn1)C(=O)N1C[C@H](F)C[C@H]1C(=O)N[C@@H](c1ccccc1)c1ccc(C(C)C)cc1 (stereo partly shown) [Compound 120]  hGYS1 enzyme (recombinant hGYS1/GN1 protein) (Homo sapiens (Human), UniProt P13807)  0.343
10  CC(C)c1ccc([C@@H](NC(=O)[C@@H]2C[C@@H](F)CN2C(=O)Cc2cccn3c(=O)[nH]nc23)c2ccccc2)cc1F [Compound 379]  hGYS1 enzyme (recombinant hGYS1/GN1 protein) (Homo sapiens (Human), UniProt P13807)  0.008
11  Cc1nn(CC(=O)N2C[C@H](F)C[C@H]2C(=O)N[C@@H](c2ccccc2)c2ccc(C(C)C)cc2)c(=O)o1 [Compound 236]  hGYS1 enzyme (recombinant hGYS1/GN1 protein) (Homo sapiens (Human), UniProt P13807)  0.058
12  O=C(N[C@@H](c1ccccc1)c1ccc(C2CC2)c(F)n1)[C@@H]1C[C@@H](F)CN1C(=O)Cc1ccc[nH]c1=O [Compound 731]  hGYS1 enzyme (recombinant hGYS1/GN1 protein) (Homo sapiens (Human), UniProt P13807)  0.066
13  O=C(N[C@@H](c1ccccc1)c1ccc(C2CC2)c(F)c1)[C@@H]1C[C@@H](F)CN1C(=O)CNC(=O)N1CCOCC1 [Compound 452]  hGYS1 enzyme (recombinant hGYS1/GN1 protein) (Homo sapiens (Human), UniProt P13807)   0.04
